Values were extracted from ChEMBL document CHEMBL1139356.

assay: Antiproliferative activity against human IB3-1 cells after 4 days; format: functional, cell-based; conditions: IB3-1, 96 h

compoundStructureString	IC50 [µM]
CCCCCCCCn1cc(C(=O)NCc2ccc3ccc(CNC(=O)c4cn(CCCCCCCC)c(=O)[nH]c4=O)cc3c2)c(=O)[nH]c1=O	505

---

test system: K562; assay: Inhibition of erythroid differentiation in human K562 cell assessed benzidine positive cells at 600 uM after 6 days by benzidine staining assay; type: functional; set-up: scale not given: the % may be the effect or the level left

compoundStructureString	Activity
CCCCCCCCn1cc(C(=O)NCCCCCCCCNC(=O)c2cn(CCCCCCCC)c(=O)[nH]c2=O)c(=O)[nH]c1=O	45%
CCCCCCCCn1cc(C(=O)NCc2ccc3ccc(CNC(=O)c4cn(CCCCCCCC)c(=O)[nH]c4=O)cc3c2)c(=O)[nH]c1=O	78%
CCCCCCCCn1cc(C(=O)NCCCCCCCNC(=O)c2cn(CCCCCCCC)c(=O)[nH]c2=O)c(=O)[nH]c1=O	50%
CCCCCCCCn1cc(C(=O)NCCCCCCNC(=O)c2cn(CCCCCCCC)c(=O)[nH]c2=O)c(=O)[nH]c1=O	40%
